# Tested on: N-acetyl-(R)-β-amino acid acylase derived from Burkholderia sp. AJ110349 (JM109/ptrp4_3BR cell-free extract)
# ASSAY NOTES: Substrate specificity and optical selectivity with cell-free extract of JM109/ptrp4_3BR
# Format: biochemical
# CONDITION PARAMETERS: JM109/ptrp4_3BR 50 mU cell-free extract, 0.2 percent substrate, 37° C., 1 hour
OUTCOME MEASURE: Concentration of acetic acid detected (mM)
Numbers only, in mM.

[[record]]
molecule = "CC(=O)NC(CC(=O)O)CC(C)C (racemic) [N-Ac-β-homoLeu, N-acetyl-(R,S)-β-homoLeu]"
outcome_measure = "Concentration of acetic acid detected"
test_result = 3.0

[[record]]
molecule = "CC(=O)NC(CC(=O)O)Cc1ccccc1 (racemic) [N-Ac-β-homoPhe, N-acetyl-(R,S)-β-homoPhe]"
outcome_measure = "Concentration of acetic acid detected"
test_result = 1.6

[[record]]
molecule = "CC(=O)NC(C)CC(=O)O (racemic) [N-Ac-β-Aba, N-acetyl-(R,S)-β-aminobutyric acid]"
outcome_measure = "Concentration of acetic acid detected"
test_result = 0.1


# batch size: 3; output Concentration of acetic acid detected per entry
1. CC(=O)NC(CC(=O)O)c1ccccc1 (racemic) [N-Ac-β-Phe, N-acetyl-(R,S)-β-Phe]
2. CC(=O)NC(CC(=O)O)c1ccc(F)cc1 (racemic) [N-Ac-β-4-F-Phe, N-acetyl-(R,S)-4-fluoro-β-Phe]
3. CC(=O)NC(CC(=O)O)c1ccc(O)cc1 (racemic) [N-Ac-β-Tyr, N-acetyl-(R,S)-β-Tyr]

[5.0, 4.6, 4.5]

What value of Concentration of acetic acid detected has been recorded for this entry: CC(=O)NC(CC(=O)O)C(C)C (racemic) [N-Ac-β-Leu, N-acetyl-(R,S)-β-Leu]
0.2

Origin of values: patent US7858348B2
